EXPERIMENT_DESCRIPTION: splicing luciferase reporter signal modulators, primary screen, spliceosome inhibition project, cell-based, HEK293, splice +/- reporter (AID 1101);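 note: HEK293 cells carrying a splicing-competent luciferase reporter gene; test concentration not given here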
DETAILS: luminescence, 24 h, higher = more signal, called active from +8 up or from −8 down
Parameter class (string): assigned from measured z-score. Ranges: low: < -0.8; intermediate: ≥ -0.8 and < 0.8; high: ≥ 0.8

*Q* State the band of COCCCNC(=O)[C@]1(Cc2ccccc2N=[N+]=[N-])N=C(c2ccc(OCCCO)cc2)O[C@@H]1c1ccccc1N=[N+]=[N-]
*A* high

*Q* Another: CCOC(=O)C1=CC[C@@H](c2ccccc2C(F)(F)F)N(S(=O)(=O)c2ccc(C)cc2)C1
*A* low

*Q* Another: O=C1OCC=C[C@H]2OC34C=CCN(Cn5nnc6ccccc65)C(=O)[C@H]3N(CCCCCCO)C(=O)[C@@H]4[C@@H]12 (stereo partly drawn)
*A* intermediate

*Q* Another: COC(=O)[C@]1(CCS(=O)(=O)c2ccccc2)N=C(c2ccc(OCCCO)cc2)O[C@@H]1c1ccccc1CN=[N+]=[N-]
*A* high

*Q* Another: CC(C)N1C(=O)[C@@]2(c3ccc([N+](=O)[O-])cc3)CC(=O)N(C3CCCCC3)[C@@H]2c2ccc(CO)cc21
*A* intermediate

*Q* Another: Cc1ccc(F)cc1S(=O)(=O)N[C@@H]1CCN(Cc2ccc(OC(C)C)cc2)C1
*A* high

*Q* Another: O=C(O)[C@]1(Cc2ccccc2)N=C(c2ccc(OCCCO)cc2)O[C@@H]1c1ccccc1
*A* intermediate

*Q* Another: NCCCCCCNC(=O)[C@H]1C[C@H]2C(=O)N[C@@H](Cc3ccccc3)C(=O)N2[C@H]1c1ccc(O)cc1
*A* low

*Q* Another: C=C(COC)/C(=C/C[C@@H](OC(=O)c1ccncc1)c1cccc(OCCO)c1)c1cnc2ccccc2c1
*A* low

*Q* Another: COCCOC(=O)N1C(=O)[C@@]2(c3cc(C#CC4(O)CCCCCC4)ccc31)[C@H](c1ccccc1OCCO)N1[C@H](c3ccccc3)[C@H](c3ccccc3)OC(=O)[C@H]1[C@@H]2C(N)=O
*A* intermediate

*Q* Another: CC(C)C(O)C1C=CC2C(=O)N(C)C(=O)C2N1N(c1ccccc1)c1ccccc1 (stereo not drawn)
*A* high

*Q* Another: C=CCNC(=O)[C@@H]1[C@H]2C(=O)O[C@H](c3ccccc3)[C@H](c3ccccc3)N2[C@H](c2ccccc2OCCO)[C@@]12C(=O)N(C(=O)OCCOC)c1ccc(C#CC3=CCCCC3)cc12
*A* low

*Q* Another: CO[C@H]1O[C@H](CO)[C@@H](OC(=O)c2ccc(Br)cc2)[C@@H]2OC(=O)[C@@H](Cc3ccc4ccccc4c3)C/C=C/C[C@H](Cc3ccc4ccccc4c3)C(=O)O[C@@H]12
*A* low
